Compiled from multiple publications: Ki readings for Rho-associated protein kinase 1 (Homo sapiens).

Before answering, review these 2 worked examples.
1. CCOC(=O)c1cc2n(n1)C(c1ccc(C(F)(F)F)cc1)C(C(=O)Nc1ccc3[nH]ncc3c1)=C(C)N2 (stereo not drawn): < 50 nM
2. CC1=C(C(=O)Nc2ccc3cnccc3c2)C(c2ccc(C(F)(F)F)c(F)c2)n2nc(NC(=O)CCN3CCCCC3)cc2N1 (stereo not drawn): < 50 nM

# return Ki for Cc1c[nH]c2ncnc(Oc3ccc(C[C@H](N)C(=O)N4C[C@@H]5C[C@H]4CN5C)cc3F)c12 , test system: Rho-associated protein kinase 1 (Homo sapiens) 3 to 30 nM

Give the observed Ki of CN(C)CC[C@H](Nc1nc(-c2c[nH]c3ncc(Cl)cc23)ncc1F)C(=O)N(C)C for Rho-associated protein kinase 1 (Homo sapiens). 500 to 5000 nM

Please tell me the measured Ki for Cc1c[nH]c2nccc(Oc3ccc(CC(N)C(=O)N4CCN(Cc5ccc(F)cc5)CC4)cc3F)c12 (stereo not drawn) ; system: Rho-associated protein kinase 1 (Homo sapiens). < 3 nM

Report measured Ki on Rho-associated protein kinase 1 (Homo sapiens); entry: Cc1c[nH]c2nccc(Oc3ccc(CC4CNCN(CCCN(C)C)C4=O)cc3F)c12 (stereo not drawn) 3 to 30 nM
